From: ChEMBL document CHEMBL1201862

System: SF-268
ASSAY_DETAILS: NCI tumour cell line growth inhibition, 48 h
Calls of active or inactive are those of the source. No stated cut-off is given here; in the data, active = GI50 up to about 1.1 µM and inactive = higher.
Your reply should match one of these outcome classes. t = active, f = inactive

Worked set:
| MOLECULE | CLASSIFICATION |
| --- | --- |
| CCOc1ccc(/C=N/[N+](C)(C)C)cc1OCC | f |
| Cc1cc2c(=O)c3ccccc3[nH]c2c(C(N)=O)c1C | f |
| C=C(Br)CN(C(C)=O)C1CCCCC1 | f |
| c1ccc(CCN2CCN=C2Cc2ccccc2)cc1 | f |

[Q] Field: outcome | Entry: CCOC(=O)c1cc2ncccc2c2ccccc12
[A] f

[Q] Would you mind telling me which call this test gave C/C(=N\O)c1ccc(Nc2c3ccccc3nc3occc23)cc1 ?
[A] t

[Q] GET /call?item= CN1c2c(O)nc(N)nc2NCC1CCNc1ccc(C(=O)NC(CCC(=O)O)C(=O)O)cc1 (configuration not stated) returns the recorded outcome of this test.
[A] f

[Q] I'd appreciate the recorded outcome for Nc1cccc(S(=O)(=O)Nc2nnc(S(N)(=O)=O)s2)c1 from this test.
[A] f

[Q] Hey, what did the test say about COc1ccc(-c2nc(N3CCCC3)no2)cc1 ?
[A] f

[Q] What was the test verdict on FC(F)(F)c1cnc(N/N=C(/c2ccccc2)c2ccccn2)c(Cl)c1 ?
[A] f

[Q] Hi, sorry to bother you, what did the test record for COc1cc(/C=C/c2ccc(OC(C)=O)cc2)cc(OC)c1OC ?
[A] f

[Q] For this molecule, state the assay outcome: S=c1c2cc(I)ccc2nc(S)n1Cc1ccccc1
[A] f

* * *

System: NCI-H226
ASSAY_DETAILS: NCI tumour cell line growth inhibition, 48 h
Calls of active or inactive are those of the source. No stated cut-off is given here; in the data, active = GI50 up to about 1.1 µM and inactive = higher.
Record form. Attribute: GI50. Fill in for each entry.

Solved cases (4 shown):
| COMPOUND | VALUE_KIND | RESULT |
| --- | --- | --- |
| OC1(C23CC4CC(CC(C4)C2)C3)CSCC1(O)C12CC3CC(CC(C3)C1)C2 (stereo unspecified) | GI50 | > 100 µM (inactive) |
| CCCCOP1(=O)C=C(C)C(=C(Cl)Cl)C(C)=C1 (stereo unspecified) | GI50 | 3.38 µM (inactive) |
| O=S(=O)(c1ccccc1)c1cccc2c1NCCC2 | GI50 | 49.9 µM (inactive) |
| Cc1cn(C2CC(N=[N+]=[N-])C(CO)O2)c(=O)n(CCCCO)c1=O (stereo unspecified) | GI50 | > 100 µM (inactive) |

Give GI50 for each of the items listed below.
1. N=C(N)N/N=C/c1cnn(C(=N)N)c1
2. COC12C=CC(C=C1C#N)CC2.COC12C=CC(CC1)CC2=O (stereo unspecified)
3. CC(=O)c1c(C)cc2cccc(OC3OC(CO)C(O)C(O)C3O)c2c1O.CC1OC(O)C(O)C(O)C1O (stereo unspecified)
4. CC1OC(n2cc(F)c(=O)[nH]c2=O)C=CC1=O (stereo unspecified)
5. CC1(C)N=C(/C(C#N)=[N+](/[O-])C(=O)c2ccccc2)C(C)(C)N1O
6. Nc1nc(N)c(CCCCc2ccccc2)c(C=O)n1
7. CC(=O)O[C@H]1C(=O)[C@@]2(C)[C@H]([C@H](OC(=O)c3ccncc3)[C@]3(O)C[C@H](OC(=O)[C@H](O)[C@@H](NC(=O)c4ccccc4)c4ccccc4)C(C)=C1C3(C)C)[C@]1(OC(C)=O)CO[C@@H]1C[C@@H]2O

[A]
["> 100 µM (inactive)", "> 100 µM (inactive)", "> 100 µM (inactive)", "24.7 µM (inactive)", "> 100 µM (inactive)", "19.4 µM (inactive)", "16.1 µM (inactive)"]

Go through the list and state GI50 for each entry.
1. COc1ccccc1-n1nnc2c(N)nc(N)nc21
2. Cc1cc2c(=O)c3ccccc3[nH]c2c(C(N)=O)c1C
3. CC1(C)COC2(OC1)C1=NS(=O)(=O)CC13CCC2C3(C)C (stereo unspecified)
4. CCOC(=O)c1sc2nc(SC)nc3c2c1NCN3c1ccc2c(c1)OCO2
5. Cc1ccc2c(ccc3c[n+]4ccccc4c(C)c32)c1.[O-][Cl+3]([O-])([O-])[O-]
6. O=c1[nH]c(Nc2nc3ccccc3[nH]2)nc(O)c1Cc1ccccc1

[A]
1: > 100 µM (inactive); 2: > 100 µM (inactive); 3: > 100 µM (inactive); 4: 25.8 µM (inactive); 5: 1.28 µM (inactive); 6: > 100 µM (inactive)

Would you mind giving GI50 for every compound in the list below?
1. O=c1[nH]nc(Cc2ccccc2)n1CCO
2. CC(=O)OCC1OC(n2c(N)c(C#N)c(C)c(C#N)c2=S)C(OC(C)=O)C(OC(C)=O)C1OC(C)=O (stereo unspecified)
3. CO/N=C/c1cc(OC)c(OC)c(OC)c1
4. CSC1NC=Nc2c1sc(=S)n2-c1ccccc1 (stereo unspecified)

[A]
> 100 µM (inactive)
> 100 µM (inactive)
> 100 µM (inactive)
> 100 µM (inactive)
